# TARGET OF ASSAY: Estrogen receptor (Homo sapiens)
# ASSAY OVERVIEW: Displacement of [3H]estradiol from recombinant ERalpha relative to estradiol
Attribute: RBA

COMPOUND	RBA
C[C@]12CC[C@@H]3c4ccc(O)cc4C[C@@H](CCCCCCCC[C@H](CCCC(F)(F)C(F)(F)C(F)(F)C(F)(F)F)C(=O)O)[C@H]3[C@@H]1CC[C@@H]2O	1%
C[C@]12CC[C@@H]3c4ccc(O)cc4C[C@@H](CCCCCCCC[C@@H](CCCC(F)(F)C(F)(F)C(F)(F)C(F)(F)F)C(=O)O)[C@H]3[C@@H]1CC[C@@H]2O	1.1%
C[C@]12CC[C@@H]3c4ccc(O)cc4C[C@@H](CCCCCCCC[C@@H](CCCC(F)(F)C(F)(F)C(F)(F)C(F)(F)F)C(=O)O)[C@H]3[C@@H]1CCC2=O	1%
C[C@]12CC[C@@H]3c4ccc(O)cc4C[C@@H](CCCCCCCCC(CCCC(F)(F)C(F)(F)F)C(=O)O)[C@H]3[C@@H]1CC[C@@H]2O (some centres undefined)	0.8%
C[C@]12CC[C@@H]3c4ccc(O)cc4C[C@@H](CCCCCCCCC(CCC(F)(F)C(F)(F)C(F)(F)C(F)(F)F)C(=O)O)[C@H]3[C@@H]1CC[C@@H]2O (some centres undefined)	0.6%
C[C@]12CC[C@@H]3c4ccc(O)cc4C[C@@H](CCCCCCCCCC(CCCC(F)(F)C(F)(F)C(F)(F)C(F)(F)F)C(=O)O)[C@H]3[C@@H]1CC[C@@H]2O (some centres undefined)	0.7%
C[C@]12CC[C@@H]3c4ccc(O)cc4C[C@@H](CCCCCCCCCC(CCCC(F)(F)C(F)(F)F)C(=O)O)[C@H]3[C@@H]1CC[C@@H]2O (some centres undefined)	1.4%
C[C@]12CC[C@@H]3c4ccc(O)cc4C[C@@H](CCCCCCCCC(CCCC(F)(F)C(F)(F)C(F)(F)C(F)(F)F)C(=O)O)[C@H]3[C@@H]1CC[C@@H]2O (some centres undefined)	1.4%
C[C@]12CC[C@@H]3c4ccc(O)cc4C[C@@H](CCCCCCCCCC(CCC(F)(F)C(F)(F)C(F)(F)C(F)(F)F)C(=O)O)[C@H]3[C@@H]1CC[C@@H]2O (some centres undefined)	0.7%

* * *

# ASSAY OVERVIEW: AUC in Sprague-Dawley rat at 10 mg/kg, iv
# Format: ADME, organism-based, Plasma
# Parameters: dose 10 mg/kg, route intravenous
# RECORDED CONDITIONS: Sprague-Dawley, plasma

MOLECULE	AUC
C[C@]12CC[C@@H]3c4ccc(O)cc4C[C@@H](CCCCCCCC[C@@H](CCCC(F)(F)C(F)(F)C(F)(F)C(F)(F)F)C(=O)O)[C@H]3[C@@H]1CC[C@@H]2O	146 µg·h/mL
C[C@]12CC[C@@H]3c4ccc(O)cc4C[C@@H](CCCCCCCCC(CCCC(F)(F)C(F)(F)C(F)(F)C(F)(F)F)C(=O)O)[C@H]3[C@@H]1CC[C@@H]2O (some centres undefined)	207 µg·h/mL
C[C@]12CC[C@@H]3c4ccc(O)cc4C[C@@H](CCCCCCCC[C@H](CCCC(F)(F)C(F)(F)C(F)(F)C(F)(F)F)C(=O)O)[C@H]3[C@@H]1CC[C@@H]2O	254 µg·h/mL
C[C@]12CC[C@@H]3c4ccc(O)cc4C[C@@H](CCCCCCCC[C@@H](CCCC(F)(F)C(F)(F)C(F)(F)C(F)(F)F)C(=O)O)[C@H]3[C@@H]1CCC2=O	50 µg·h/mL
